Origin of values: patent US20240352133A1

target: Recombinant human his-tagged IGF 1R extracellular domain protein (human) (UniProt P08069); assay: SPR, captured antibody, dissociation at pH 6
# reported Kd; entries follow
// units = nM; emit number, no label

binder	quantity	unit_descriptor	recorded_number
VRDN-03101 (antibody, V domains shown) VH: QVQLVESGGGVVQPGRSLRLSCAASGFTFSDYTMHWVRQAPGKGLEWVAIIWFDGSSKYYADSVKGRFTISRDNSKNTLYLQMNSLRAEDTAVYYCARELGRRYFDIWGRGTLVTVSS VL: EIVLTQSPATLSLSPGERATLSCRASQGVSSYLAWYQQKPGQAPRLLIYGASTRATGIPARFSGSGSGTDFTLTISSLEPEDFAVYYCQQRSRWPPWTFGQGTKLEIK	Kd	nM	1.23
VRDN-03053 (antibody, V domains shown) VH: QVELVESGGGVVQPGRSQRLSCAASGFTFSSYGMHWVRQAPGKGLEWVAIIWFDGSSTYYADSVRGRFTISRDNSKNTLYLQMNSLRAEDTAVYFCARELGRRYFDLWGRGTLVSVSS VL: EIVLTQSPATLSLSPGERATLSCRASQSVSSYLAWYQQKPGQAPRLLIYDASKHATGIPARFSGSGSGTDFTLTISSLEPEDFAVYYCQQRSKWPPWTFGQGTKVESK	Kd	nM	1.67

Lab note: next binder to report on.
Prompt: Name the recorded Kd for VRDN-03043 (antibody, V domains shown) VH: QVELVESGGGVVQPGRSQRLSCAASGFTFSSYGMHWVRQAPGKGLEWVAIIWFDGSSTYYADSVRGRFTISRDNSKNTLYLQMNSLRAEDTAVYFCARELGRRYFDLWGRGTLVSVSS VL: EIVLTQSPATLSLSPGERATLSCRASQSHSSYLAWYQQKPGQAPRLLIYDASKRATGIPARFSGSGSGTDFTLTISSLEPEDFAVYYCQQRSKWPPWTFGQGTKVESK .
Response: 18.2
